biological target: T1, human IL-6 (human, UniProt P05231 30-212); test: SPR Biacore, supernatant Ab on Protein A chip, 37 C
T1 construct: IL-6 flowed over captured antibodies
T1 sequence (P05231 30-212 limits assumed): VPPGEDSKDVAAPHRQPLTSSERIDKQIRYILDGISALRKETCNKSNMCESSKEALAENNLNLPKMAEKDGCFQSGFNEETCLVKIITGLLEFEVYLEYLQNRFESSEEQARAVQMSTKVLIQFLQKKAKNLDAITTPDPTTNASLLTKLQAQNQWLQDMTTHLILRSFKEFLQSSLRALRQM
Reported property: Kd
Please don't drop the unit; write it after the number.

anti-IL-6 antibody, heavy chain S35G, G66D / light chain M32L, M50D, N52S, M88Q (antibody, IgG1, V domains shown, Full IgG1 (Expi293); VL = variant III) VH: EVQLVESGGGLVQPGGSLRLSCAASGFTFSPFAMGWVRQAPGKGLEWVAKISPGGSWTYYSDTVTDRFTFSLDTSKSTAYLQMNSLRAEDTAVYYCARQLWGYYALDIWGQGTLVTVSS VL: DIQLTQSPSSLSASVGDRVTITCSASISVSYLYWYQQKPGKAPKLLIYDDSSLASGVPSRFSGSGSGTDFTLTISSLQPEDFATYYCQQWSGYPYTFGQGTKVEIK; 0.609 nM
anti-IL-6 antibody, heavy chain T65S, G66D / light chain M32L, M50D, N52S, M88Q (antibody, IgG1, V domains shown, Full IgG1 (Expi293); VL = variant III) VH: EVQLVESGGGLVQPGGSLRLSCAASGFTFSPFAMSWVRQAPGKGLEWVAKISPGGSWTYYSDTVSDRFTFSLDTSKSTAYLQMNSLRAEDTAVYYCARQLWGYYALDIWGQGTLVTVSS VL: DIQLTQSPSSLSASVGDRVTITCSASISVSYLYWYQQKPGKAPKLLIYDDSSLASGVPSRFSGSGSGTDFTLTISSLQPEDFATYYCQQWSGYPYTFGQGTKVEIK; 0.31 nM

Continue with the next binder.
Query: Identify the reported Kd for the following entry. anti-IL-6 antibody, heavy chain S35Y, G66D / light chain M32L, M50D, N52S, M88Q (antibody, IgG1, V domains shown, Full IgG1 (Expi293); VL = variant III) VH: EVQLVESGGGLVQPGGSLRLSCAASGFTFSPFAMYWVRQAPGKGLEWVAKISPGGSWTYYSDTVTDRFTFSLDTSKSTAYLQMNSLRAEDTAVYYCARQLWGYYALDIWGQGTLVTVSS VL: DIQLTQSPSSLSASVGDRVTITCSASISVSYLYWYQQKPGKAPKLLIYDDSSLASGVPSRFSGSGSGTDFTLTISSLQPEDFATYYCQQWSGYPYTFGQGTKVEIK
Reply: 3.43 nM
